Measured normalised growth rate inhibition of individual entries
# Test system: BT20
# Experiment Summary: normalised growth rate inhibition (GR value) relative to DMSO control (GR (1 = untreated growth, 0 = cytostasis, <0 = cytotoxic)); higher = less growth inhibition
# Experimental Parameters: 1.11 µM; 72 h
Reply with the value as a number alone.

Please review the following examples before continuing.
Line Notation | normalised growth rate inhibition
Cc1cnc(-c2cnc(NCCNc3ccc(C#N)cn3)nc2-c2ccc(Cl)cc2Cl)[nH]1 | 1
Cc1[nH]c(/C=C2\C(=O)Nc3ccc(S(=O)(=O)Cc4c(Cl)cccc4Cl)cc32)c(C)c1C(=O)N1CCC[C@@H]1CN1CCCC1 | 0.976
CC(C)CC(=O)Nc1n[nH]c2c1CN(C(=O)C1CCN(C)CC1)C2(C)C | 0.109
C=CC(=O)Nc1cc(-n2c(=O)ccc3cnc4ccc(-c5cn[nH]c5)cc4c32)ccc1C | 0.535
Cn1cc(C2=C(c3cn(C4CCN(Cc5ccccn5)CC4)c4ccccc34)C(=O)NC2=O)c2ccccc21 | 1.07
C[C@]1(O)C[C@@H](c2nc(-c3ccc4ccc(-c5ccccc5)nc4c3)c3c(N)nccn32)C1 | 0.924
CN1CC[C@H](c2c(O)cc(O)c3c(=O)cc(-c4ccccc4Cl)oc23)[C@H](O)C1 | -0.35
COc1cc(N2CCC(C(N)=O)CC2)ccc1Nc1nc(N)c(Cl)c(Nc2ccccc2S(=O)(=O)C(C)C)n1 | 0.887
COc1cc(C(=O)NC2CCN(C)CC2)ccc1Nc1ncc2c(n1)N(C1CCCC1)CCC(=O)N2C(C)C | 0.936
Cc1nc(Nc2ncc(C(=O)Nc3c(C)cccc3Cl)s2)cc(N2CCN(CCO)CC2)n1 | 0.0125

Requested read-out: normalised growth rate inhibition. Entry: CC(=O)Nc1cccc(-n2c(=O)n(C3CC3)c(=O)c3c(Nc4ccc(I)cc4F)n(C)c(=O)c(C)c32)c1 0.717

I'd like to know its normalised growth rate inhibition. The compound in question is Cc1cn(-c2cc(NC(=O)c3ccc(C)c(Nc4nccc(-c5cccnc5)n4)c3)cc(C(F)(F)F)c2)cn1 0.996

What value of normalised growth rate inhibition has been reported for the following compound? CCCS(=O)(=O)Nc1ccc(F)c(C(=O)c2c[nH]c3ncc(Cl)cc23)c1F 0.882

Requested read-out: normalised growth rate inhibition. Entry: Nc1ccc(-c2ccc3ncc4ccc(=O)n(-c5cccc(C(F)(F)F)c5)c4c3c2)cn1 -0.218

Which normalised growth rate inhibition is reported for this compound? CN(C)C/C=C/C(=O)Nc1cc2c(Nc3ccc(F)c(Cl)c3)ncnc2cc1O[C@H]1CCOC1 0.868

Report normalised growth rate inhibition for Cc1cc2c(F)c(Oc3ncnn4cc(OC[C@@H](C)O)c(C)c34)ccc2[nH]1 please. 0.928

Item under review: COc1cc2ncnc(Nc3ccc(F)c(Cl)c3)c2cc1OCCCN1CCOCC1 . Reported normalised growth rate inhibition? 0.909

What normalised growth rate inhibition value was documented for this compound, CN(c1ccccc1CNc1nc(Nc2ccc3c(c2)CC(=O)N3)ncc1C(F)(F)F)S(C)(=O)=O ? 0.121

Returns the measured normalised growth rate inhibition for the input compound. Input: CCN(CC)CCCCNc1ncc2cc(-c3cc(OC)cc(OC)c3)c(NC(=O)NC(C)(C)C)nc2n1 1.14

Which measured normalised growth rate inhibition value corresponds to N#CC[C@H](C1CCCC1)n1cc(-c2ncnc3[nH]ccc23)cn1 ? 0.973

Values compiled from the supplement of paper PMC5662764.
